- Run parameters: in methyl acetate, 303.15 K
Outcome measure: solubility (mole fraction)

{"Substance smiles": "CN1CCN(C(=O)O[C@H]2c3nccnc3C(=O)N2c2ccc(Cl)cn2)CC1", "Assay value": 0.00303}

---

- Run parameters: in n-propanol, 323.15 K
Outcome measure: solubility (mole fraction)

{"Substance smiles": "CN1CCN(C(=O)O[C@H]2c3nccnc3C(=O)N2c2ccc(Cl)cn2)CC1", "Outcome measure": "solubility (mole fraction)", "Assay value": 0.00079}

---

- Run parameters: in acetone, 288.15 K

{"Substance smiles": "CN1CCN(C(=O)O[C@H]2c3nccnc3C(=O)N2c2ccc(Cl)cn2)CC1", "solubility (mole fraction)": 0.0013}

Data origin, for the record: BigSolDB 2.1
